In this section, each of the binders is paired with its reported cAMP assay-1 IC50.
Tested On: full-length human GCGR on CHO cells (human, UniProt P47871 26-477)
Sequence (P47871 26-477): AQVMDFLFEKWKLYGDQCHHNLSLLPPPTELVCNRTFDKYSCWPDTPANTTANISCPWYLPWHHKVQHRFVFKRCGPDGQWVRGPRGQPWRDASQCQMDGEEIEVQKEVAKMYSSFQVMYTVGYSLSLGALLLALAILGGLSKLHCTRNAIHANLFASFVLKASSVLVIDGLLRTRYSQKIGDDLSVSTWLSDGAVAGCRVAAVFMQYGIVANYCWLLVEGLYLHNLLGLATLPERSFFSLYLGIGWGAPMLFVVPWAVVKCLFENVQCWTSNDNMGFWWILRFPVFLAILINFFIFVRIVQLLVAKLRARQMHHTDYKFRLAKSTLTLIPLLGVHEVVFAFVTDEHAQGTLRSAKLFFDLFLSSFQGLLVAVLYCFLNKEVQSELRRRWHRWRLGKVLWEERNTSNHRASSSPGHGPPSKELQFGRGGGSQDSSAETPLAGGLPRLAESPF
Assay Overview: cell-based or functional assay
Give just the number in nM; leave the unit off.

Solved cases below.
Binder: anti-GCGR antibody 5B11 (antibody, V domains shown, mouse hybridoma monoclonal antibody) VH: QVQLQQSGAELVKPGASVKLSCKASGNTFTSHWMHWVKQRPGQGLEWIGMSHPNSGSSNYSGKFKSKATLTVDRSSSTAYMQLNSLTSEDSAVYYCARTDYDYDGDYWGQGTTLTVSS VL: DVVLTQTPLSLPVNIGDQASISCKSSKSLLNSDGLTYLDWYLQKPGQSPQLLIYLVSNRFSGVPDRFSGSGSGTDFTLKISRVEADDLGVYYCFQSNFLPLTFGAGTKLELK
cAMP assay-1 IC50 / nM: 7.22
//
Binder: anti-GCGR antibody 13G9 (antibody, V domains shown, mouse hybridoma monoclonal antibody; also called 13G19) VH: QVQLQQSGAELVRPGTSVKISCKASGYTFTNYWLGWVKQRPGHGLEWIGDIYPGGDYNNYNGKFKGKATLTADTSSSTAYIQLSSLTSEDSAVYFCVRSDDGYSWGQGTTLTVSS VL: DVLMTQTPLSLPVSLGDQASISCRSSQSIVDSYGNTYLEWYQQKPGQSPTLLIYKVSNRFAGVPDRFSGSGSGTDFTLKISRVEAEDLGVYYCFQGSHIPWTFGGGTKVEIK
cAMP assay-1 IC50 / nM: 7.22

Okay, now this binder:
Challenge: For anti-GCGR antibody 14E9 (antibody, V domains shown, mouse hybridoma monoclonal antibody; also called 13E9) VH: QVQLQQSGAELVRPGTSVKMSCKAAGYTFTNYWIGWVKQRPGHGLEWIGDISPGNYYTNYNAKFKDKVSLTADTSSSTAYMQLSSLTSEDSAIYYCARYDEFAYWGQGTLVTVSA VL: DVLMTQTPLSLSVSLGDQASISCRSSQSIVHSDGNTYLEWYLQKPGQSPKLLIYKVSNRFSGVPDRFSGSGSGTDFTLKISRVEAEDLGVYYCFQGSHVPWTFGGGTKLEIK , what is its reported cAMP assay-1 IC50?
Response given: 24.6
